target: human CD33 variant K52S (human, UniProt P20138 18-364); experiment: flow cytometry, IgG on cells expressing the mutant
Sequence (P20138 18-364 K52S limits assumed): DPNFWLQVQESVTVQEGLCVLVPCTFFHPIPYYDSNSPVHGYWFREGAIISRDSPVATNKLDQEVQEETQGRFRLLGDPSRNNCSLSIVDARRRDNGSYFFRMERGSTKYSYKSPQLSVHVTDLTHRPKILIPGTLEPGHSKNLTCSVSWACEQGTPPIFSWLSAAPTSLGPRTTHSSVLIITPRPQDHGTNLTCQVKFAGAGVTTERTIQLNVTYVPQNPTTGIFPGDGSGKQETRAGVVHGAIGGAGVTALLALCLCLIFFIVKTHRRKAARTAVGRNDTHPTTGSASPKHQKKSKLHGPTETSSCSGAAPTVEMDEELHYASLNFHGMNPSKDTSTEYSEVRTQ
Quick reference: Mean % WT Binding of the listed items.

See these solved cases before continuing.
binder | reported-measurement
Refmab #4 (antibody, human IgG1, V domains shown, Tested in IgG format; human IgG1 Fc silent (PG-LALA)) VH: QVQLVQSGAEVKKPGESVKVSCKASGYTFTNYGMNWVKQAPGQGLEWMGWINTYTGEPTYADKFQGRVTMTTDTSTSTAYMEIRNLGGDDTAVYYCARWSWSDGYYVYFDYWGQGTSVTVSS VL: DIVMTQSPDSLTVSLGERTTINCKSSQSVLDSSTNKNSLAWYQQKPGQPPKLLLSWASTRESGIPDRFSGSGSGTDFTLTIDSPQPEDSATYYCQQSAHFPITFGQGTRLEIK | 85 % of WT
Refmab #3 (antibody, human IgG1, V domains shown, Tested in IgG format; human IgG1 Fc silent (PG-LALA)) VH: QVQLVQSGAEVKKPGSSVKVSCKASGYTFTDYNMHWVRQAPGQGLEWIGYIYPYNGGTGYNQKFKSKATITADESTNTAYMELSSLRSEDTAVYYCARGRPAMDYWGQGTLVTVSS VL: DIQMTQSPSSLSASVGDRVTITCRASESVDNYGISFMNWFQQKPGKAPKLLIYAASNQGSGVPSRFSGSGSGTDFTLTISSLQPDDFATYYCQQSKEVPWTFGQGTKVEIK | 96.8 % of WT
Refmab #1 (antibody, human IgG1, V domains shown, Tested in IgG format; human IgG1 (Absolute Antibody hP67.6, Cat. No. Ab00283-10.0); also called hP67.6) VH: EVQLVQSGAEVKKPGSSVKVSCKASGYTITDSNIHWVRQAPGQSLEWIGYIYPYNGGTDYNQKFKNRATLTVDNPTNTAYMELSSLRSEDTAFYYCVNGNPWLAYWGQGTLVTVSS VL: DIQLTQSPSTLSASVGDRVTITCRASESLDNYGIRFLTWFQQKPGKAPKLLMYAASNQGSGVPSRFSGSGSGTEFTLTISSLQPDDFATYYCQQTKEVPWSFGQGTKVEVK | 84.3 % of WT

Shift focus to the following entry.
Task: // fetch Mean % WT Binding given entry Refmab #2 (antibody, human IgG1, V domains shown, Tested in IgG format; human IgG1 Fc silent (PG-LALA)) VH: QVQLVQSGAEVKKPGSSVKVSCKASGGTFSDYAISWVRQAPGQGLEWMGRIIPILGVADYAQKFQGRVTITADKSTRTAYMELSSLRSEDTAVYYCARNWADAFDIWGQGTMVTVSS VL: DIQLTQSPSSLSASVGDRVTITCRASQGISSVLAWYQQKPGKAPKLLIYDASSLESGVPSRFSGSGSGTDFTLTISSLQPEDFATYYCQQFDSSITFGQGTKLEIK
Output: 113 % of WT
